Reference source: ChEMBL document CHEMBL1165950

test system: SN12C; experiment: Cytotoxicity against human SN12C cells assessed as cell growth at 0.01 uM after 48 hrs by sulforhodamine B assay; format: functional; conditions: read-out: Activity
value.type: growth at 0.01 µM (%)
Number in %, nothing else.

- COc1cc(C)cc(-c2nn(CC#N)cc2-c2ccc(-c3cccc(C(C)=O)c3)nc2)c1: 88
- Cc1cc(O)cc(-c2nn(CC#N)cc2-c2ccnc(-c3ccc(N(C)C)cc3)c2)c1: 90
- COc1cc(C)cc(-c2c(-c3ccnc(-c4ccc(C(C)=O)cc4)c3)cnn2CC#N)c1: 93
- COc1cc(C)cc(-c2nn(CC#N)cc2-c2ccnc(-c3ccc(N(C)C)cc3)c2)c1: 90
- COc1cc(C)cc(-c2c(-c3ccnc(-c4ccc(N(C)C)cc4)c3)cnn2CC#N)c1: 75

Please turn your attention to the following entry.
Q: Need growth at 0.01 µM, item `Cc1cc(O)cc(-c2nn(CC#N)cc2-c2ccnc(-c3ccc(Oc4ccccc4)cc3)c2)c1`
Ans: 88

---

test system: PC-3; assay: Cytotoxicity against human PC3 cells assessed as cell growth at 10 uM; type: functional; conditions: read-out: Activity
value.type: growth at 10 µM (%)
Number in %, nothing else.

* COc1cc(C)cc(-c2c(-c3ccnc(-c4ccc(N(C)C)cc4)c3)cnn2CC#N)c1 | 27.6
* Cc1cc(O)cc(-c2nn(CC#N)cc2-c2ccnc(-c3ccc(C#N)cc3)c2)c1 | 95.5

Q: Need growth at 10 µM, item `COc1cc(C)cc(-c2c(-c3ccnc(-c4ccc(C(C)=O)cc4)c3)cnn2CC#N)c1`
Ans: 77.3

---

system: UACC-62; assay: Growth inhibition of human UACC62 cells after 48 hrs by sulforhodamine B assay; assay type: functional; settings: UACC-62, 48 h
GI50 values by entry
Number in µM, nothing else.

• COc1cc(C)cc(-c2nn(CC#N)cc2-c2ccnc(-c3ccc(N(C)C)cc3)c2)c1 = 0.337
• COc1cc(C)cc(-c2c(-c3ccnc(-c4ccc(N(C)C)cc4)c3)cnn2CC#N)c1 = 0.0619
• COc1cc(C)cc(-c2nn(CC#N)cc2-c2ccc(-c3cccc(C(C)=O)c3)nc2)c1 = 4.36

Q: Need GI50, item `COc1cc(C)cc(-c2c(-c3ccnc(-c4ccc(C(C)=O)cc4)c3)cnn2CC#N)c1`
Ans: 4.05

Q: Need GI50, item `Cc1cc(O)cc(-c2nn(CC#N)cc2-c2ccnc(-c3ccc(N(C)C)cc3)c2)c1`
Ans: 3.05

Q: Need GI50, item `Cc1cc(O)cc(-c2nn(CC#N)cc2-c2ccnc(-c3ccc(Oc4ccccc4)cc3)c2)c1`
Ans: 4.67

---

test system: T47D; assay: Cytotoxicity against human T47D cells assessed as cell growth at 100 nM after 48 hrs by sulforhodamine B assay; type: functional; conditions: read-out: Activity
value.type: growth at 0.1 µM (%)
Number in %, nothing else.

// worked examples, growth at 0.1 µM included
• COc1cc(C)cc(-c2c(-c3ccnc(-c4ccc(N(C)C)cc4)c3)cnn2CC#N)c1 = 44
• COc1cc(C)cc(-c2nn(CC#N)cc2-c2ccnc(-c3ccc(N(C)C)cc3)c2)c1 = 24
• COc1cc(C)cc(-c2c(-c3ccnc(-c4ccc(C(C)=O)cc4)c3)cnn2CC#N)c1 = 87

Q: GET /values?readout=growth at 0.1 µM&system=T47D&item= `Cc1cc(O)cc(-c2nn(CC#N)cc2-c2ccnc(-c3ccc(N(C)C)cc3)c2)c1`
Ans: 82

Q: GET /values?readout=growth at 0.1 µM&system=T47D&item= `COc1cc(C)cc(-c2nn(CC#N)cc2-c2ccc(-c3cccc(C(C)=O)c3)nc2)c1`
Ans: 81

Q: GET /values?readout=growth at 0.1 µM&system=T47D&item= `Cc1cc(O)cc(-c2nn(CC#N)cc2-c2ccnc(-c3ccc(Oc4ccccc4)cc3)c2)c1`
Ans: 84
